test.protocol: Log P by HPLC on reversed phase columns (EEC directive 79/831 Annex V.A8)
Format: physicochemical
protocol.conditions: method [a]: LC-UV, acidic range, 0.1% formic acid in water and acetonitrile as eluent

molecule: Cc1c(C(=O)NC(C(=O)OCc2ccccc2)C(C)C)sc(Br)c1Br (stereo not drawn) [I.57]
LogP: 5.03^[a]

molecule: CCOC(=O)C(Cc1ccccc1)NC(=O)c1sc(Cl)c(Cl)c1I (stereo not drawn) [VIa.24]
LogP: 5.00^[a]

molecule: Cc1c(C(=O)NC(C(=O)OC2CSC2)C(C)C)sc(Br)c1Br (stereo not drawn) [I.17]
LogP: 4.67^[a]

molecule: CCOC(=O)[C@@H](Cc1ccccc1)NC(=O)c1sc(Cl)c(Cl)c1C [I.45]
LogP: 4.46^[a]

molecule: Cc1c(C(=O)NC(C)C(=O)O)sc(Br)c1Br (stereo not drawn) [I.79]
LogP: 2.39^[a]

molecule: COC(=O)[C@H](CCSC)NC(=O)c1sc(Cl)c(Cl)c1C [I.30]
LogP: 3.55^[a]
